# ASSAY_TARGET: Dual specificity protein kinase CLK2 (Homo sapiens) (UniProt P49760);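 further: reported values are mean percent inhibition of CLK2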
# Sequence (P49760 whole entry, looked up): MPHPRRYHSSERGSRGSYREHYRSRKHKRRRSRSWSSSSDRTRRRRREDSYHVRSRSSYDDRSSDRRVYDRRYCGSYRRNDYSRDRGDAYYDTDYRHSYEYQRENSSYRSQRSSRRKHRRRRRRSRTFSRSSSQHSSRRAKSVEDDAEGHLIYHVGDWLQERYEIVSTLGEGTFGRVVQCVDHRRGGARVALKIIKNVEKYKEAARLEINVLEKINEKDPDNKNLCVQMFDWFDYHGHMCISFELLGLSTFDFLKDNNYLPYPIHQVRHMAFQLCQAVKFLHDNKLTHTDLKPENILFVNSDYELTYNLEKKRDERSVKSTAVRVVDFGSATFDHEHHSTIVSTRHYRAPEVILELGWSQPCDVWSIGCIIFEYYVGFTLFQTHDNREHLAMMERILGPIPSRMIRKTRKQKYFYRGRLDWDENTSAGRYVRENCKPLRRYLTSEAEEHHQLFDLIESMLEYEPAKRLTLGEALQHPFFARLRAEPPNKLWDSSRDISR
# MEASUREMENT_CONDITIONS: at 1 µM
EXPERIMENTAL_READOUT: inhibition (%)

# COMPOUND, EXPERIMENTAL_READOUT, QUANTITATIVE_RESULT
measured = [
    ("COc1cc2ncn(-c3cc(O[C@H](C)c4ccccc4Cl)c(C(N)=O)s3)c2cc1OC", "inhibition", 5.22),
    ("CCCN1CCC(Oc2cc(Nc3nc(Nc4cccc(F)c4C(N)=O)c4cc[nH]c4n3)c(OC)cc2Cl)CC1", "inhibition", 49.3),
    ("CCn1c(-c2nonc2N)nc2c(N3CCCC3)nccc21", "inhibition", -0.67),
    ("CCn1c(-c2nonc2N)nc2c(C#CC(C)(C)O)nc(OC[C@@H](N)c3ccccc3)cc21", "inhibition", 2.4),
    ("CS(=O)(=O)CCNCc1ccc(-c2ccc3ncnc(Nc4ccc(OCc5cccc(F)c5)c(C(F)(F)F)c4)c3c2)o1", "inhibition", 0.13),
    ("NCc1ccc(-c2nc(-c3ccc(Cl)c(O)c3)c(-c3ccncc3)[nH]2)cc1", "inhibition", 0.72),
    ("CC(=O)Nc1cccc(C#Cc2cncnc2Nc2ccc(OCc3cccc(F)c3)c(Cl)c2)n1", "inhibition", 0.84),
    ("CC1=C(C(=O)Nc2ccc3[nH]ncc3c2)C(c2ccc3ccccc3c2)CC(=O)N1 (centres undefined)", "inhibition", 2.42),
    ("COc1ccc(COc2ccc(Cc3cnc(N)nc3N)cc2OC)cc1", "inhibition", 1.66),
]
